Lab note: pKi readings collected with Kappa-type opioid receptor (Homo sapiens) for the following molecules.
Field pKi (float): negative decimal logarithm of the concentration in molar.

Illustrative cases are given below, each with its answer.
Cc1ccccc1-c1cnc2c(c1)C[C@@]1(OCCCc3ccccc3)[C@H]3Cc4ccc(O)c5c4[C@@]1(CCN3CC1CC1)[C@H]2O5 | 6.82
Oc1ccc2c3c1O[C@H]1c4ncc(-c5cccnc5)cc4C[C@@]4(OCCCc5ccccc5)[C@@H](C2)N(CC2CC2)CC[C@]314 | 7.56
COc1cc(-c2cnc3c(c2)C[C@@]2(OCCCc4ccccc4)[C@H]4Cc5ccc(O)c6c5[C@@]2(CCN4CC2CC2)[C@H]3O6)ccn1 | 8.18

Item: Oc1ccc2c3c1O[C@H]1c4ncc(-c5ccccc5)cc4C[C@@]4(OCCCc5ccc(F)cc5)[C@@H](C2)N(CC2CC2)CC[C@]314 | System: Kappa-type opioid receptor (Homo sapiens) | pKi: 7.22

// molecule CN(C)c1ccccc1-c1cnc2c(c1)C[C@@]1(OCCCc3ccccc3)[C@H]3Cc4ccc(O)c5c4[C@@]1(CCN3CC1CC1)[C@H]2O5 , assay Kappa-type opioid receptor (Homo sapiens), pKi value: 8.10

pKi for Kappa-type opioid receptor (Homo sapiens) with input Oc1ccc2c3c1O[C@H]1c4ncc(-c5ccccc5)cc4C[C@@]4(OCCCCc5ccccc5)[C@@H](C2)N(CC2CC2)CC[C@]314 equals 7.24

# Cc1ccc(-c2cnc3c(c2)C[C@@]2(OCCCc4ccccc4)[C@H]4Cc5ccc(O)c6c5[C@@]2(CCN4CC2CC2)[C@H]3O6)cc1 with Kappa-type opioid receptor (Homo sapiens): pKi is 6.99

Tested on Kappa-type opioid receptor (Homo sapiens), the item Oc1ccc2c3c1O[C@H]1c4ncc(-c5ccc(F)cc5)cc4C[C@@]4(OCCCc5ccccc5)[C@@H](C2)N(CC2CC2)CC[C@]314 showed pKi equal to 8.17

The reported Kappa-type opioid receptor (Homo sapiens) pKi of Cc1nocc1-c1cnc2c(c1)C[C@@]1(OCCCc3ccccc3)[C@H]3Cc4ccc(O)c5c4[C@@]1(CCN3CC1CC1)[C@H]2O5 is 7.64

pKi for Kappa-type opioid receptor (Homo sapiens) with input COc1cccc(-c2cnc3c(c2)C[C@@]2(OCCCc4ccccc4)[C@H]4Cc5ccc(O)c6c5[C@@]2(CCN4CC2CC2)[C@H]3O6)c1 equals 6.99

Log: Kappa-type opioid receptor (Homo sapiens), molecule Oc1ccc2c3c1O[C@H]1c4ncc(-c5ccccc5)cc4C[C@@]4(OCCCC5CCCCC5)[C@@H](C2)N(CC2CC2)CC[C@]314 , pKi = 7.24

----------
molecular target: Delta-type opioid receptor (Homo sapiens); test: Antagonist activity at human delta opioid receptor expressed in CHO cell membranes assessed as reduction in SNC80-induced [35S]GTPgammaS binding preincubated for 5 mins followed by SNC80 addition and measured after 1 hr
We begin with a simple list: items and their reported IC50.
Write the answer as a number in nM, unit excluded.

Record Oc1ccc2c3c1O[C@H]1c4ncc(-n5cccc5)cc4C[C@@]4(OCCCc5ccccc5)[C@@H](C2)N(CC2CC2)CC[C@]314 has Delta-type opioid receptor (Homo sapiens) IC50 equal to 0.98

Field IC50 (system: Delta-type opioid receptor (Homo sapiens)) for entry Oc1ccc2c3c1O[C@H]1c4ncc(-c5ccccn5)cc4C[C@@]4(OCCCc5ccccc5)[C@@H](C2)N(CC2CC2)CC[C@]314 = 0.51

Reported IC50 (Delta-type opioid receptor (Homo sapiens)) for entry COc1cc(-c2cnc3c(c2)C[C@@]2(OCCCc4ccccc4)[C@H]4Cc5ccc(O)c6c5[C@@]2(CCN4CC2CC2)[C@H]3O6)ccn1 is 0.7

Where do the numbers come from? From ChEMBL document CHEMBL4627399.
